Listed next: entries and their corresponding AC50.
# MEASURED ON: His6-TEV-PPARγ-(234-505) (Homo sapiens)
# Construct: The His6-TEV-PPARγ-(234-505) protein for assay was expressed and purified; TEV cleavage site (N); made in house
# Sequence (P37231 234-505): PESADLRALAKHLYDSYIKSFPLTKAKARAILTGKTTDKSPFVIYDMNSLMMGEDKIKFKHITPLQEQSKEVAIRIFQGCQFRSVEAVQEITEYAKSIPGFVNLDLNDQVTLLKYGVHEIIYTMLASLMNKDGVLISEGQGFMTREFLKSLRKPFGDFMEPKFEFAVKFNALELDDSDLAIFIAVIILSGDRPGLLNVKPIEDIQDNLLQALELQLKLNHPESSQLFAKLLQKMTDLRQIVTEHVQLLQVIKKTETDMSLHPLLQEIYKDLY
# ASSAY PROCEDURE: TR-FRET Assay to Measure Co-R Peptide Recruitment to PPARγ
# Format: biochemical
# ASSAY CONDITIONS: Co-R peptide (SMRT-ID2) recruitment; top final concentration 20 μM; read-out: TR-FRET i-Ag; AC50
# Method: TR-FRET Assay to Measure Co—R Peptide Recruitment to PPARγ The 2× detection solution contained anti-6×His-Terbium antibody (CisBio) and FITC labeled Co—R peptide (SMRT-ID2 from New England Peptide) at final concentrations of 5 and 200 nM respectively. In these assay plates, the positive control in column 24 contained 500 nM (final) T0070907 and the negative control in column 23 contained an identical volume of DMSO. […] Experiments were performed in triplicate and analyzed in GraphPad Prism 7.
Give the quantity in nM, number only.

| COMPOUND | UNIT SYMBOL | RECORDED RESULT |
| --- | --- | --- |
| COc1cc(-c2cc(C(=O)N3CC[C@H](C(=O)NCc4nnccc4C)CC34CC4)n[nH]2)c(F)cn1 | nM | 181 |

Reported His6-TEV-PPARγ-(234-505) (Homo sapiens) AC50 for item COc1cc(-c2cc(C(=O)N3CCC(C(=O)NC4CCN(c5ccc(C#N)cn5)C4)CC34CC4)n[nH]2)c(F)cn1 (mixture of isomers) was 0.7

Case COc1cc(-c2cc(C(=O)N3CCC(C(=O)NCc4ccc5c(c4)C(C)(C)C(=O)N5)CC3)n[nH]2)c(Cl)cn1 , His6-TEV-PPARγ-(234-505) (Homo sapiens), AC50 recorded as 74.2
